Target: Human immunodeficiency virus type 1 reverse transcriptase (Human immunodeficiency virus 1)
Test: Effective concentration against HIV-1 reverse transcriptase
pEC50: −log10 of the molar value.
# cutoff 7 applies to pEC50; >= gives YES, < gives NO

> print(dat)
                                   compound  class.label
1  C=CCN1Cc2c(C)ccc3[nH]c(=S)n(c23)C[C@@H]1C          YES
2  CC(C)=CCN1Cc2cccc3[nH]c(=S)n(c23)C[C@@H]1C          YES
3    C=CCN1Cc2cccc3[nH]c(=O)n(c23)C[C@@H]1C           NO
4  C=CCN1[C@@H](C)Cn2c(=S)[nH]c3cccc(c32)[C@@H]1C          YES
5  CC(C)=CCN1Cc2c(Cl)ccc3[nH]c(=S)n(c23)C[C@@H]1C [TIVIRAPINE]          YES
6  C=CCN1[C@H](C)c2cccc3[nH]c(=S)n(c23)C[C@@H]1C           NO

Reported pEC50 reaches at least 7 for "C=CCN1Cc2c(Cl)ccc3[nH]c(=S)n(c23)C[C@@H]1C" ?
YES

Reported pEC50 reaches at least 7 for "CC(C)=CCN1Cc2cc(Cl)cc3[nH]c(=S)n(c23)C[C@@H]1C" ?
YES

src = ChEMBL document CHEMBL1132191
